Entry source: PubChem BioAssay

# test-protocol: growth suppression of beta-catenin knockout HCT116, pilot screen, human colon tumor cells (AID 823);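 note: 0% = wells killed by 20 µM Hyamine and 100% = untreated DMSO cell wells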
# test-settings: CellTiter-Glo, 60 h, at 10 µM
Records with an inconclusive call do not appear. Activity calls are given as the source filed them.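 Rule for the calls: active = cell viability at or below a set limit in both duplicate runs, the limit being the all-compound median minus 4 SD (cut at about 23% in these data, passing the limit was not always enough); inconclusive = no clear call, values can overlap the other calls; inactive = the rest.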
Entry note: the call must match one of T (active), F (inactive)

Answered examples (10):
Cc1ccc(-n2nnc3c(=O)n(Cc4ccccc4C)cnc32)cc1; F
CCCn1c(CCNC(=O)c2cccs2)nc2ccccc21; F
COCCn1c(C)cc(C(=O)CSc2nnc3ccccn23)c1C; F
CCCN1Cc2cccc(C(=O)N3CCN(c4cc(Cl)ccc4C)CC3)c2C1=O; F
COc1ccc(C(=O)NCc2cn3ccsc3n2)cc1OC; F
NC(=O)C1CCN(C(=O)CN(c2cccc(C(F)(F)F)c2)S(=O)(=O)c2ccccc2)CC1; F
C1=C(N2CCOCC2)/C(=C/c2nc3ccccc3[nH]2)CC1; F
CCOC(=O)Cc1csc(NC(=O)COc2ccc(N(C)S(=O)(=O)c3cccs3)cc2)n1; F
CCc1ccc2[nH]cc(C(=O)OCCOC)c(=O)c2c1; F
Cc1ccc(-c2nc(CS(=O)CC(=O)NCCCN3CC(C)CC(C)C3)c(C)o2)cc1 (stereo unspecified); F

Ask | # fetch the recorded call for O=C(CSc1nc2c(cnn2-c2ccc(F)cc2)c(=O)[nH]1)N1CCOCC1 here
Reply | F

Ask | # fetch the recorded call for Cc1ccc(C2CC(c3ccc(Cl)cc3)n3nc(N)nc3N2)cc1 (stereo unspecified) here
Reply | F

* * *

# test-protocol: inhibitors of the yeast RAM network, pilot screen, dse1pr::URA3 reporter, 5-FOA selection (AID 869);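 note: 0% = DMSO wells with no growth and 100% = 10 µM 1-NA-PP1 with full growth; RAM network block rescues cells from 5-FOA so hits raise OD615 growth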
# test-settings: S. cerevisiae dse1pr::URA3 5-FOA growth, OD615, 2 d; at 10 µM; hits give high values; strain carries analog-sensitive mutant Cbk1 kinase
Calls of active or inactive are those of the source.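 Rule for the calls: active = inhibition over a set limit, the all-compound mean plus 3 SD, in both replicate runs; inconclusive = over that limit in just one replicate run; inactive = at or under that limit in both runs.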
recorded-metric: inhibition

COc1cccc(CNC(=O)Cn2cc3c(n2)CCCC3)c1; 1.44% (inactive)
O=C(CSc1nc2ccccc2c(=O)n1-c1ccccc1)N1CCN(CCO)CC1; 0.595% (inactive)
COc1ccc(C2C(C(N)=O)=C(C)Nc3nc(-c4ccccc4)nn32)cc1OC (stereo unspecified); 0.78% (inactive)
CCN1C(=O)c2ccccc2Sc2ccc(C(=O)NCCN3CCOCC3)cc21; -0.985% (inactive)
CC(CCc1ccccc1)NC(=O)C1CCN(C(=O)c2sccc2-n2cccc2)CC1 (stereo unspecified); 1.75% (inactive)
COc1ccc(C(=O)Nc2cccnc2)cc1S(=O)(=O)N1CCOCC1; 0.84% (inactive)

Record inhibition for all entries; do not skip any.
1. COC(=O)Cn1c(CN2CCN(c3ccc(F)cc3)CC2)nc2c1c(=O)n(C)c(=O)n2C
2. CCCC(=O)Nc1nc2ccc(OCC)cc2s1
3. CSC1=N/C(=C\c2ccc(C)o2)C(=O)S1
4. CCCOc1ccc(N2C(=O)CC(N3CCN(c4ccccc4F)CC3)C2=O)cc1 (stereo unspecified)

Reply |
1: 2.88% (inactive); 2: 0.615% (inactive); 3: 0.93% (inactive); 4: 0.125% (inactive)

Ask | Entry CCCCNC(=O)CS(=O)Cc1nc(-c2cccc(Cl)c2)oc1C (stereo unspecified) : reported inhibition = ?
Reply | 0.705% (inactive)

* * *

# test-protocol: RAM signaling pathway blockade in yeast – S. cerevisiae, Pdr1DBD-CYC8 efflux-inhibited sensitized strain, primary screen (AID 1298);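 note: 0% = DMSO untreated cells without growth and 100% = 10 µM 1-NA-PP1 full growth; higher means more yeast growth rescued from 5-FOA killing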
# test-settings: S. cerevisiae cbk1-as DSE1-URA3 strain, 5-FOA growth OD615, 2 d; at 50 µM; hits give high values
recorded-metric: RAM network inhibition (%)
Answers are plain numbers, in %.

Record RAM network inhibition for all entries; do not skip any.
1. COc1ccc(F)cc1S(=O)(=O)Nc1ccc2c(c1)OCCO2
2. S=c1sc2c(N3CCOCC3)ncnc2n1-c1ccccc1

Reply |
1: 2.35; 2: 4.8

Record RAM network inhibition for all entries; do not skip any.
1. CCc1ccccc1NC1c2ccccc2C(=O)N1c1cc(C)ccn1 (stereo unspecified)
2. CC(=O)Nc1nonc1-c1nc2ccccc2n1Cc1nnc(C)o1
3. COc1cccc(C(=O)Nc2cc(=O)n(C)c(=O)n2C)c1OC

Reply |
1: 11.4; 2: 1.99; 3: 1.14

Record RAM network inhibition for all entries; do not skip any.
1. O=C(O)CCc1ccc(-c2cccs2)n1-c1ccc(C(=O)O)cc1
2. Cc1ccccc1NC(=O)CN1C(=O)COc2ccc(Cl)cc21
3. Cc1ccc(Cn2c3ccccc3c3cn[nH]c(=O)c32)cc1
4. O=C(Nn1nnnc1Nc1ccccc1)C12CC3CC(CC(C3)C1)C2

Reply |
[-0.68, 4.92, 3.88, 4.63]

Record RAM network inhibition for all entries; do not skip any.
1. CCOC(=O)c1ccc(NC(=O)CSc2nc(C)cc(=O)[nH]2)cc1
2. CCOC(=O)c1c(C)oc2cc(Br)c(OC(=O)N3CCOCC3)cc12

Reply |
1: 0.78; 2: 1.4
